target: T1, Homo sapiens factor Bb protein (human, UniProt P00751 260-764); test: SPR single cycle kinetics, IgG on Protein A chip, factor Bb analyte
T1 construct: Bought from CompTech (A155); also called complement factor Bb; human factor Bb
T1 sequence (P00751 260-764 limits assumed): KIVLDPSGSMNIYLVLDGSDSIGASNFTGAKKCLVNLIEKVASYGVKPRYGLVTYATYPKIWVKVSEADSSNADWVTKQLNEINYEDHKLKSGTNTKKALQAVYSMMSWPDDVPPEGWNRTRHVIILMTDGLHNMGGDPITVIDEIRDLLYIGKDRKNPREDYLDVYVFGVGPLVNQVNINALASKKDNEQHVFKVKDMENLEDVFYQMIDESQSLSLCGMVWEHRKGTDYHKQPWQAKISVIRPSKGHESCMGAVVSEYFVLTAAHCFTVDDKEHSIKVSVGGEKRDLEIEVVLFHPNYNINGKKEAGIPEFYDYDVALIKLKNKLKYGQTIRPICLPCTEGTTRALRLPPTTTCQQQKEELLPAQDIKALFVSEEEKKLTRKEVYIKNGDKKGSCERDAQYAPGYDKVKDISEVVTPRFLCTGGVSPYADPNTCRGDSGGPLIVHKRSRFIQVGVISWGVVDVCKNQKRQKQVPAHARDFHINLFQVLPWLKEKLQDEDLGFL
Readout label: Kd
Returns: string containing the numeric result and its unit.

Binder	Readout label	Value
VH2/Vκ2 (antibody, V domains shown) VH: EVQLVESGGGLVKPGGSLRLSCAASGFTFSNYAMSWVRQAPGKGLEWVATISNRGSYTYYPDSVKGRFTISRDNAKNSLYLQMNSLRAEDTALYYCARERPMDYWGQGTLVTVSS VL: DIVMTQSPSTLSASVGDRVTITCKASQDVGTAVAWYQQKPGQPPKLLIYWASTRHTGVPDRFTGSGSGTDFTLTISSLQAEDFAVYFCHQHSSNPLTFGQGTKLEIK	Kd	13.9 nM

Memo: VH1/Vκ3 (antibody, V domains shown) VH: EVQLVESGGGLVKPGGSLRLSCAASGFTFSNYAMSWVRQAPGKGLEWVATISNRGSYTYYPDSVKGRFTISRDNAKNSLYLQMSSLRSEDTALYYCARERPMDYWGQGTSVTVSS VL: DIQMTQSPSTLSASVGDRVTITCKASQDVGTAVAWYQQKPGQPPKLLIYWASTRHTGVPDRFSGSGSGTDFTLTISSLQAEDFAVYFCHQHSSNPLTFGQGTKLEIK , reported Kd: 3.9 nM
